# target.or.test.system: CX3CR1 (Homo sapiens (Human))
# assay.info: CX3CR1-dependent cell adhesion to recombinant CX3CL1 in human whole blood under flow
# Type: cell-based
# test.context: recombinant full-length CX3CL1
Labelling field: enter class 1 if recorded IC50 is less than 500 nM. Enter class 0 if it equals or exceeds that cut-off.

Examples with answers:
CC(C)C[C@H](CO)Nc1nc(C[C@@H](C)c2ccc(F)c(F)c2F)nc(NS(C)(=O)=O)n1 (single isomer, unassigned); class 1
COc1ncc([C@H](C)Cc2nc(N[C@@H](CO)CC(C)C)nc(NS(C)(=O)=O)n2)cc1F (single isomer, unassigned); class 0
CC(C)C[C@H](CO)Nc1nc(C[C@@H](C)c2ccccc2F)nc(NS(C)(=O)=O)n1 (single isomer, unassigned); class 1
CC(C)C[C@H](CO)Nc1nc(C[C@@H](C)c2ccccc2)nc(NS(C)(=O)=O)n1 (single isomer, unassigned); class 1

Okay, now this compound:
Prompt line: For CC(C)C[C@H](CO)Nc1nc(C[C@H](C)c2ccc(Cl)cc2F)nc(NS(C)(=O)=O)n1 (single isomer, unassigned) , is the recorded IC50 below the cut-off of 500 nM?
Response line: class 0

---

# target.or.test.system: UniProtKB P49238
# assay.info: Flow adhesion for human B-lymphocyte cell line RPMI-8226
# Assay type: cell-based
# test.context: RPMI-8226 cells under flow, recombinant full-length CX3CL1
pIC50: −log10 of the molar value.
Please mark 1 (yes) if the recorded pIC50 is equal to or greater than 7, and 0 (no) if it falls below.

Reference set (4 entries):
CC(C)C[C@H](CO)Nc1nc(C[C@H](C)c2cccc(F)c2F)nc(NS(C)(=O)=O)n1 (single isomer, unassigned); 0 (no)
CC(C)C[C@H](CO)Nc1nc(C[C@@H](C)c2ccccc2)nc(NS(C)(=O)=O)n1 (single isomer, unassigned); 1 (yes)
COc1ccc([C@@H](C)Cc2nc(N[C@@H](CO)CC(C)C)nc(NS(C)(=O)=O)n2)cn1 (single isomer, unassigned); 0 (no)
CC(C)C[C@H](CO)Nc1nc(C[C@@H](C)c2ccc(F)cc2)nc(NS(C)(=O)=O)n1 (single isomer, unassigned); 1 (yes)

Next up:
Prompt line: Is the recorded value of pIC50 equal to or greater than 7 for this compound? CC(C)C[C@H](CO)Nc1nc(C[C@@H](C)c2cccc(F)c2F)nc(NS(C)(=O)=O)n1 (single isomer, unassigned)
Response line: 1 (yes)

---

The reader will find reported pIC50 values listed item by item below.
# target.or.test.system: CX3CR1 (Homo sapiens (Human), UniProt P49238)
# Sequence (P49238 whole entry): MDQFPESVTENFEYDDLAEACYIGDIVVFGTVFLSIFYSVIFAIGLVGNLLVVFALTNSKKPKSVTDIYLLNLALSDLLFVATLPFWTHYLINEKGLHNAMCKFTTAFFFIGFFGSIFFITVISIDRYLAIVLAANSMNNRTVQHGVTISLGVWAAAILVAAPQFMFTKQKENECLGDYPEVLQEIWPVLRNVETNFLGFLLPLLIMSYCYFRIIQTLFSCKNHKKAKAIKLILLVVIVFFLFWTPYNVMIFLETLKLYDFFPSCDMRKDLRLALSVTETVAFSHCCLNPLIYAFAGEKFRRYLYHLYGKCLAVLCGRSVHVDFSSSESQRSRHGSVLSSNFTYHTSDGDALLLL
# assay.info: hCX3CR1 [3H]-AZD8797 competitive binding assay (filter)
# test.context: CHO-hCX3CR1 membranes, 2 nM [3H]-AZD8797
As a rule, pIC50 stands for the negative log10 of the concentration, concentration in M.

Illustrative cases are given below, each with its answer.
CC(C)C[C@H](CO)Nc1nc(CC(C)c2ccc(C(C)(F)F)cc2)nc(NS(C)(=O)=O)n1 (some centres unmarked) [Example 71]; 6.48
COc1ccc([C@@H](C)Cc2nc(N[C@@H](CO)CC(C)C)nc(NS(C)(=O)=O)n2)c(OC)n1 (single isomer, unassigned) [Example 53]; 6.28
CC(C)C[C@H](CO)Nc1nc(CC(C)c2ccc(N)cc2)nc(NS(C)(=O)=O)n1 (some centres unmarked) [Example 112]; 7.54
CC(C)C[C@H](CO)Nc1nc(CC(C)c2ccc3ncoc3c2)nc(NS(C)(=O)=O)n1 (some centres unmarked) [Example 61]; 7.12
CC(C)C[C@H](CO)Nc1nc(C[C@@H](C)c2ccc(Cl)c(F)c2F)nc(NS(C)(=O)=O)n1 (single isomer, unassigned) [Example 34]; 7.28
CC(C)C[C@H](CO)Nc1nc(CC(C)c2ccc3c(c2)OCC(=O)N3C)nc(NS(C)(=O)=O)n1 (some centres unmarked) [Example 129]; 6.77
CC(C)C[C@H](CO)Nc1nc(CC(C)c2cccc(F)c2O)nc(NS(C)(=O)=O)n1 (some centres unmarked) [Example 135]; 6.98
CC(C)C[C@H](CO)Nc1nc(CC(C)c2ccc3c(c2)OCO3)nc(NS(C)(=O)=O)n1 (some centres unmarked) [Example 108]; 7.24

The measured pIC50 associated with CC(C)C[C@H](CO)Nc1nc(C[C@@H](C)c2ccccc2)nc(NS(C)(=O)=O)n1 (single isomer, unassigned) [Example 148] reads 7.43

Measured pIC50, Cc1ncc(C(C)Cc2nc(N[C@@H](CO)CC(C)C)nc(NS(C)(=O)=O)n2)cc1N (some centres unmarked) [Example 131] : 6.19

Sample CCOc1cc(C(C)Cc2nc(N[C@@H](CO)CC(C)C)nc(NS(C)(=O)=O)n2)ccn1 (some centres unmarked) [Example 67] ; pIC50 observed: 6.44

Entry CC(C)C[C@H](CO)Nc1nc(CC(C)c2ccc(F)c(C#N)c2)nc(NS(C)(=O)=O)n1 (some centres unmarked) [Example 161] , pIC50 reported as 5.90

Summary for this compound, COc1ccc([C@@H](C)Cc2nc(N[C@@H](CO)CC(C)C)nc(NS(C)(=O)=O)n2)cn1 (single isomer, unassigned) [Example 75] : pIC50 is 5.57

---

# target.or.test.system: CX3CR1 (Homo sapiens (Human))
# assay.info: hCX3CR1 [3H]-AZD8797 competitive binding assay (filter)
# test.context: CHO-hCX3CR1 membranes, 2 nM [3H]-AZD8797
# label = YES if IC50 < 60 nM else NO

Please review the entries below; each comes with its answer.
CC(C)C[C@H](CO)Nc1nc(C[C@@H](C)c2ccnc(F)c2)nc(NS(C)(=O)=O)n1 (single isomer, unassigned) [Example 91]; YES
Cc1cc(C(C)Cc2nc(N[C@@H](CO)CC(C)C)nc(NS(C)(=O)=O)n2)ccc1F (stereo partly shown) [Example 111]; NO
CC(C)C[C@H](CO)Nc1nc(CC(C)c2cccc(N)c2)nc(NS(C)(=O)=O)n1 (stereo partly shown) [Example 121]; YES

Prompt line: Is IC50 of CC(C)C[C@H](CO)Nc1nc(C[C@@H](C)c2c(F)cc(F)cc2F)nc(NS(C)(=O)=O)n1 (single isomer, unassigned) [Example 40] strictly below 60 nM?
Response line: NO

Prompt line: Decide: IC50 of CC(C)C[C@H](CO)Nc1nc(C[C@H](C)c2ccc(F)c(Cl)c2)nc(NS(C)(=O)=O)n1 (single isomer, unassigned) [Example 65] strictly below 60 nM?
Response line: NO

Prompt line: hey, is IC50 for CC(C)C[C@H](CO)Nc1nc(CC(C)c2ccc(N=S(C)(C)=O)cc2)nc(NS(C)(=O)=O)n1 (stereo partly shown) [Example 63] lower than 60 nM or not?
Response line: NO

Prompt line: Given the entry CC(C)C[C@H](CO)Nc1nc(CC(C)c2ccc3[nH]ccc3c2)nc(NS(C)(=O)=O)n1 (stereo partly shown) [Example 60] , would its reported IC50 be below 60 nM?
Response line: NO

---

# target.or.test.system: CX3CR1 (Homo sapiens (Human))
# assay.info: hCX3CR1 [3H]-AZD8797 competitive binding assay (filter)
# test.context: CHO-hCX3CR1 membranes, 2 nM [3H]-AZD8797
measured.attribute: pIC50
# log scale: pIC50 equals minus log10 of the concentration in mol/L

Reference set, count: 3
COc1ccc([C@H](C)Cc2nc(N[C@@H](CO)CC(C)C)nc(NS(C)(=O)=O)n2)c(F)n1 (single isomer, unassigned); 7.74
CCC(Cc1nc(N[C@@H](CO)CC(C)C)nc(NS(C)(=O)=O)n1)c1ccccc1F (stereo partly shown); 6.60
CC[C@H](Cc1nc(N[C@@H](CO)CC(C)C)nc(NS(C)(=O)=O)n1)c1cccc(F)c1F (single isomer, unassigned); 7.20

Entry CC(C)C[C@H](CO)Nc1nc(CC(C)c2ccc(C(F)(F)F)cc2)nc(NS(C)(=O)=O)n1 (stereo partly shown) : pIC50 on CX3CR1 (Homo sapiens (Human)) = 6.03

Here CC(C)C[C@H](CO)Nc1nc(C[C@@H](C)c2ccc(Cl)c(Cl)c2)nc(NS(C)(=O)=O)n1 (single isomer, unassigned) was tested on CX3CR1 (Homo sapiens (Human)), and its pIC50 came to 6.44

Hey, CX3CR1 (Homo sapiens (Human)) data for CCOc1ccc(C(C)Cc2nc(N[C@@H](CO)CC(C)C)nc(NS(C)(=O)=O)n2)cn1 (stereo partly shown) : pIC50 came out at 6.51

---

Listing of entries alongside the reported IC50.
# target.or.test.system: CX3CR1 (Homo sapiens (Human))
# assay.info: hCX3CR1 [3H]-AZD8797 competitive binding assay (filter)
# test.context: CHO-hCX3CR1 membranes, 2 nM [3H]-AZD8797
Respond with the bare value in nM.

CC(C)C[C@H](CO)Nc1nc(CC(C)c2cccc(F)c2)nc(NS(C)(=O)=O)n1 (stereo partly drawn); 105
CC(C)C[C@H](CO)Nc1nc(C[C@@H](C)c2cc(F)c(Cl)cc2F)nc(NS(C)(=O)=O)n1 (single isomer, unassigned); 685

Continue with the next compound.
IC50 measured on CC(C)C[C@H](CO)Nc1nc(C[C@@H](C)c2ccc(N)nc2)nc(NS(C)(=O)=O)n1 (single isomer, unassigned) = 30
